Target: integrin alphaV beta3 (Homo sapiens, UniProt P06756;P06756;P05106 P06756:31-889,P06756:891-1048,P05106:27-788)
Sequence (P06756 31-889, chain 1 of 3): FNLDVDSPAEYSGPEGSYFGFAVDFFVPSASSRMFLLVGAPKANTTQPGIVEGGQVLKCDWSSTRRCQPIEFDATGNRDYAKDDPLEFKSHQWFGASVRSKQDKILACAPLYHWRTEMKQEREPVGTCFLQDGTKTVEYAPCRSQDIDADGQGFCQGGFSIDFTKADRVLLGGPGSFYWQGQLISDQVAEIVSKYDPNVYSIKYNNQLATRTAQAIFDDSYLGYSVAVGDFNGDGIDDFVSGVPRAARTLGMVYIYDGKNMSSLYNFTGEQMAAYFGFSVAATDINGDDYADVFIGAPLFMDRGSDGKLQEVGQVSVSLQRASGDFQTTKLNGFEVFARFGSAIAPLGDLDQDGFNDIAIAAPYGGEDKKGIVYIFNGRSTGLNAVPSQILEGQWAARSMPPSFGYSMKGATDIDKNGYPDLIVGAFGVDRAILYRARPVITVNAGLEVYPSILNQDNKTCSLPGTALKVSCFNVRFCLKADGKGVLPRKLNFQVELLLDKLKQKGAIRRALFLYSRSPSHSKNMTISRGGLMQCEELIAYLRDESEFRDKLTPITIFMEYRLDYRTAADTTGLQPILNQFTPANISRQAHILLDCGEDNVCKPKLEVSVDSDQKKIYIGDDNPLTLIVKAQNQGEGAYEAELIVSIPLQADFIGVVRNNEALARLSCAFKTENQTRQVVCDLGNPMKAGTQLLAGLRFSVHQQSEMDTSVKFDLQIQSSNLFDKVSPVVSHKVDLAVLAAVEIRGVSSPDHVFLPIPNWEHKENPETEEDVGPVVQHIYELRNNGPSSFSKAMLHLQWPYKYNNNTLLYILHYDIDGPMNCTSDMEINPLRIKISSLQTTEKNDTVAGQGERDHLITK
Sequence (P06756 891-1048, chain 2 of 3): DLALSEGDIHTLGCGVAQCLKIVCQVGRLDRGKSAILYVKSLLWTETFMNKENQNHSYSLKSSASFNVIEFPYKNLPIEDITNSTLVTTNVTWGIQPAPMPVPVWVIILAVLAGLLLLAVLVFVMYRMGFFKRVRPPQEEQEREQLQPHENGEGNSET
Sequence (P05106 27-788, chain 3 of 3): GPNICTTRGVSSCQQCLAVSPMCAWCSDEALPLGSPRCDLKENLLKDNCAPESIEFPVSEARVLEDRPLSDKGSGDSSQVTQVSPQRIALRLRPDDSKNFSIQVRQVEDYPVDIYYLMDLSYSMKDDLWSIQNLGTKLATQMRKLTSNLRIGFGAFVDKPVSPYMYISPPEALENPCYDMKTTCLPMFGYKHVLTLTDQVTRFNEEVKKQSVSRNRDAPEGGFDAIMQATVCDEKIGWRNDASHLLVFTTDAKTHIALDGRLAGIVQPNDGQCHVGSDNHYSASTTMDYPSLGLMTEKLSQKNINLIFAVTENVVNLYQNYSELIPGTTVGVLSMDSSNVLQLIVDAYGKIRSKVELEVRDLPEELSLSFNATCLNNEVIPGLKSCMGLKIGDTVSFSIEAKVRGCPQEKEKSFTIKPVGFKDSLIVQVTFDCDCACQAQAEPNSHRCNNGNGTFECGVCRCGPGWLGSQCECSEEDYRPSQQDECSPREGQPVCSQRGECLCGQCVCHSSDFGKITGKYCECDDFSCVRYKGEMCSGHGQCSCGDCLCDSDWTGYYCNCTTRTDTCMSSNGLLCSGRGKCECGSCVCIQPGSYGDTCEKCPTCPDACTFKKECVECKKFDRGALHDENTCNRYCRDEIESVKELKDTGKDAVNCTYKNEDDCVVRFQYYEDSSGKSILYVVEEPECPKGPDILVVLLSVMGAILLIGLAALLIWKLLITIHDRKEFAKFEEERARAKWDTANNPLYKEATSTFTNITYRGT
Experiment: microtiter plate, streptavidin-AP; Mg2+, Ca2+, Mn2+, pH 7.5, 37 C
Conditions: label: 5'-biotin
pKd: −log10 of the molar value.
Listing: pKd of selected binders

binder	value.prefix	pKd
15.7 (ssRNA, 2'-F C and U) RNA: GGGAGACAAGAAUAAACGCUCAAUUCUACGAUGUCAAAGGGCUUAUAUGAGCGGAUUACCCUUCGACAGGAGGCUCACAACAGGC	=	8.30
7.41 (ssRNA, 2'-F C and U) RNA: GGGAGACAAGAAUAAACGCUCAAGCGAGCCUAUUGUCUAAGAUGCACCAGGCCUGUUAAGCAUUUCGACAGGAGGCUCACAACAGGC	<	6.00
7.38 (ssRNA, 2'-F C and U) RNA: GGGAGACAAGAAUAAACGCUCAAUUCAACGCUGUCCAAGGGCUUAUAUGAGCGCGUUAUACCCUUCGACAGGAGGCUCACAACAGGC	=	7.31
15.53 (ssRNA, 2'-F C and U) RNA: GGGAGACAAGAAUAAACGCUCAAUUCAACGCUGUCCUAGGGCUUAUAUGAGCGCAGGAUACCCUUCGACAGGAGGCUCACAACAGGC	=	7.15
15.20 (ssRNA, 2'-F C and U) RNA: GGGAGACAAGAAUAAACGCUCAAUUCAACGCUGUCCAAGGGCUUAUAUGAGCGCAUUAUACCCUUCGACAGGAGGCUCACAACAGGC	=	7.70
